Recorded values, source ChEMBL document CHEMBL5724914.

- study_conditions: human gut metagenome, 24 h, 2 µM; further: call rule not given here
measured_attribute: Bacterial Biotransformation

[[record]]
compound = "Cc1cc(C)cc(OCC2CNC(=O)O2)c1 (centres undefined) [METAXALONE]"
measured_attribute = "Bacterial Biotransformation"
result = "Compound metabolized"

[[record]]
compound = "c1ccc2[nH]c(-c3cscn3)nc2c1 [THIABENDAZOLE]"
measured_attribute = "Bacterial Biotransformation"
result = "Compound NOT metabolized"

[[record]]
compound = "CNNCc1ccc(C(=O)NC(C)C)cc1 [PROCARBAZINE]"
measured_attribute = "Bacterial Biotransformation"
result = "Compound NOT metabolized"

[[record]]
compound = "C[C@]12C=CC(=O)C=C1CC[C@@H]1[C@@H]2C(=O)C[C@@]2(C)[C@H]1CC[C@]2(O)C(=O)CO [PREDNISONE]"
measured_attribute = "Bacterial Biotransformation"
result = "Compound metabolized"

[[record]]
compound = "CCc1oc2ccccc2c1C(=O)c1cc(Br)c(O)c(Br)c1 [BENZBROMARONE]"
measured_attribute = "Bacterial Biotransformation"
result = "Compound NOT metabolized"

[[record]]
compound = "CC12CC3CC(C)(C1)CC(N)(C3)C2 [MEMANTINE]"
measured_attribute = "Bacterial Biotransformation"
result = "Compound NOT metabolized"


IN: Look at this compound and give its reported Bacterial Biotransformation. N=C(N)NC(=O)Cc1c(Cl)cccc1Cl [GUANFACINE]
OUT: Compound NOT metabolized

IN: Look at this compound and give its reported Bacterial Biotransformation. CC(=O)Nc1ccc(OC(C)=O)cc1 [DIACETAMATE]
OUT: Compound metabolized

IN: Look at this compound and give its reported Bacterial Biotransformation. CC(C)c1nc(N(C)S(C)(=O)=O)nc(-c2ccc(F)cc2)c1/C=C/[C@@H](O)C[C@@H](O)CC(=O)[O-].CC(C)c1nc(N(C)S(C)(=O)=O)nc(-c2ccc(F)cc2)c1/C=C/[C@@H](O)C[C@@H](O)CC(=O)[O-].[Ca+2] [ROSUVASTATIN CALCIUM]
OUT: Compound NOT metabolized

IN: Look at this compound and give its reported Bacterial Biotransformation. C[N+]12CCC(CC1)C(OC(=O)C(O)(c1ccccc1)c1ccccc1)C2.[Br-] (centres undefined) [CLIDINIUM BROMIDE]
OUT: Compound NOT metabolized

IN: Look at this compound and give its reported Bacterial Biotransformation. CC(N)C12CC3CC(CC(C3)C1)C2 (centres undefined) [RIMANTADINE]
OUT: Compound NOT metabolized
